Measured Kd, listed per entry for reference.
Molecular target: T1, FR3exFc (human)
T1 construct: also called FGFR3/Fc; FR3/Fc
T1 sequence (chain, as listed by the source limits assumed): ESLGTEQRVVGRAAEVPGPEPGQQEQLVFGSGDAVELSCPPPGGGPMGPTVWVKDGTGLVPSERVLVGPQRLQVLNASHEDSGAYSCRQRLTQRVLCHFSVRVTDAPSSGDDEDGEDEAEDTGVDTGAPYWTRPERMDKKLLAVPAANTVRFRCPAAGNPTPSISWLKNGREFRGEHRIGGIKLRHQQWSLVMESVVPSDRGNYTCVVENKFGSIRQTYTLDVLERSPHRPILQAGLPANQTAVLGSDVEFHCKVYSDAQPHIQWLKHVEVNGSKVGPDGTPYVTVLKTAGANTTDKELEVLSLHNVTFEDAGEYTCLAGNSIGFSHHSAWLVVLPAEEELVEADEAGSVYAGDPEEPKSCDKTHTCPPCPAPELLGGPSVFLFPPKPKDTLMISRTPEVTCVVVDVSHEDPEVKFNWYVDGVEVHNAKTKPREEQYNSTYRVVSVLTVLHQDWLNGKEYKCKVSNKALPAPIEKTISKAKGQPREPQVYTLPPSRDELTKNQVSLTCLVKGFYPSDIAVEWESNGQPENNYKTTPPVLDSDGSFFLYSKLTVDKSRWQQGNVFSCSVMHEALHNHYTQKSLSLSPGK
Experiment: BIACORE, FGFR3 captured on an anti-Fc chip
Please state the figure in nM; there is no need to write the unit.

Some solved cases for reference:
MSPRO11 (Fab, V domains shown) VH: QVQLVQSGAEVKKPGASVKVSCKASGYTFTSYYMHWVRQAPGQGLEWMGWINPNSGGTNYAQKFQGRVTMTRDTSISTAYMELSSLRSEDTAVYYCARYYGSSLYHYVFGGFIDYWGQGTLVTVSS VL: DIALTQPASVSGSPGQSITISCTGTSSDVGGYNYVSWYQQHPGKAPKLMIYDVSNRPSGVSNRFSGSKSGNTASLTISGLQAEDEADYYCQSHHFYEVFGGGTKLTVLG; 4
MSPRO29 (Fab, V domains shown) VH: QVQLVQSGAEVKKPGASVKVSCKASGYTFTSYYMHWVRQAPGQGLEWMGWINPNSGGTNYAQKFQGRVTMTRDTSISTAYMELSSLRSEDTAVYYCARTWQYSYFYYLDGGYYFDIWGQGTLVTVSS VL: DIVLTQSPATLSLSPGERATLSCRASQSVSSSYLAWYQQKPGQAPRLLIYGASSRATGVPARFSGSGSGTDFTLTISSLEPEDFATYYCQQTNNAPVTFGQGTKVEIKR; 6

Kindly review the next binder as well.
Note to self: Kd recorded for MSPRO28 (Fab, V domains shown) VH: QVQLVQSGAEVKKPGSSVKVSCKASGGTFSSYAISWVRQAPGQGLEWMGGIIPIFGTANYAQKFQGRVTITADESTSTAYMELSSLRSEDTAVYYCARGGGWVSHGYYYLFDLWGQGTLVTVSS VL: DIQMTQSPSSLSASVGDRVTITCRASQGISSYLAWYQQKPGKAPKLLIYAASSLQSGVPSRFSGSGSGTDFTLTISSLQPEDFAVYYCFQYGSIPPTFGQGTKVEIKR was 9

// data source = patent US20090202547A1
